Origin of values: patent US20240059762A1

Target: T1, Recombinant SARS-CoV-2 N protein His tagged (SARS-CoV-2, UniProt P0DTC9 1-419)
T1 construct: also called nucleocapsid (N) protein; recombinant HIS tagged SARS-CoV-2 N protein
Test: BLI (Octet Red 96E), mAb on anti-mouse Fc biosensor, N protein in solution, global 1:1 fit
Catalogue of kon values

{"binder": "SCT-Pa18 (antibody, mouse IgG1, kappa, V domains shown) VH: QVQLQQPGAELVKPGASVKLSCKASGYTFTSYWMQWVKQRPGQGLEWIGEIAPSDSYTNYNQKFKGKATLTVDTSSSTAYMQLSSLTSEDSAVYYCAGGDYYGYDVKTWFAYWGQGTLVTVSA VL: DIQMTQTTSSLSASLGDRVTISCSASQDISNYLNWYQQKPDGTVKLLIYYTSSLHSGVPSRFSGSGSGTGYSLTISNLEPEDIATYYCQQYSKLPYTFGGGTKLEIKR", "kon / M⁻¹ s⁻¹": 557000}
{"binder": "SCT-Pa06 (antibody, mouse IgG1, kappa, V domains shown) VH: QVTLKESGPGILQPSQTLSLTCSFSGFSLSTYGMGVGWIRQPSGKGLEWLANIWWNDDKNYNSALKSRLTISKDTSNNQLFLRISSVDTADTATYFCAQIPAYYSNSWFAYWGHGTLVTVSA VL: ENVLTQSPAIMAASPGEKVTMTCSASSSVSSGNFHWYQQKPGTSPKLWIYRTSNLASGVPARFSGSGSGTSYSLTISSMEAEDAATYYCQQWSGYPYTFGSGTKLKIKR", "kon / M⁻¹ s⁻¹": 337000}
{"binder": "SCT-Pa16 (antibody, mouse IgG1, kappa, V domains shown) VH: QVQLQQPGTELVKPGASVKLSCKASGYTFTSYWMHWVKQRPGQGLEWIGSVNPSNGGANYNEKFKNKATLTVDKSSSTAYMQLSSLTSEDSAVYYCARRNGFPYYFDYWGQGTTLTVSS VL: DIVMTQSQKFVSTSVGDRVSVTCKASQNVGTNVVWYQQKPGQSPKPLIYSASYRYSGVPDRFTGSGSGTDFTLTISNVQSEDLADYFCHQYNSSPLTFGVGTKLELKR", "kon / M⁻¹ s⁻¹": "1.04e+06"}
